Test system: HaCaT, human immortalized keratinocyte cell line
Test: MTT assay, cytotoxicity in HaCaT
Assay type: cell-based
Conditions: Homo sapiens, HaCaT, 72 h, mean ± SD, nontumor cells
Provide the reported pIC50 of each item.
Give bare numbers, as −log10 of the molar value.

// known answers, use as guide
>>> result_value("C=C(C)[C@@H]1CC[C@]2(C(=O)O)CC[C@]3(C)[C@H](CC[C@@H]4[C@@]5(C)CC[C@H](O)C(C)(C)[C@@H]5CC[C@]43C)[C@@H]12 [BET, betulinic acid, reference compound]")
3.97
>>> result_value("CC[C@@H](C(=O)[C@@H](C)[C@@H](O)[C@H](C)CCc1ccc(C)c(O)c1C(=O)O)[C@H]1O[C@](CC)([C@H]2CC[C@](O)(CC)[C@H](C)O2)C[C@@H]1C")
4.80
>>> result_value("O=c1[nH]c(=O)n([C@H]2C[C@H](O)[C@@H](CO)O2)cc1F [FLO, floxuridine, reference compound]")
4.42
>>> result_value("O=c1[nH]c(=O)n(CCOCCBr)cc1F")
3.98
>>> result_value("O=c1[nH]cc(F)c(=O)[nH]1 [5FU, 5-fluorouracil, reference compound]")
4.28
>>> result_value("CC[C@@H](C(=O)[C@@H](C)[C@@H](O)[C@H](C)CCc1ccc(C)c(O)c1C(=O)OCCCCCCn1cc(F)c(=O)[nH]c1=O)[C@H]1O[C@](CC)([C@H]2CC[C@](O)(CC)[C@H](C)O2)C[C@@H]1C [Compound 9, LAS–5-Fluorouracil Conjugate]")
4.36
>>> result_value("CC[C@@H](C(=O)[C@@H](C)[C@@H](O)[C@H](C)CCc1ccc(C)c(O)c1C(=O)OCCCCn1cc(F)c(=O)[nH]c1=O)[C@H]1O[C@](CC)([C@H]2CC[C@](O)(CC)[C@H](C)O2)C[C@@H]1C [Compound 8, LAS–5-Fluorouracil Conjugate]")
4.48
>>> result_value("C=C(C)[C@@H]1CC[C@]2(C(=O)OCCCCCCOC(=O)c3c(CC[C@@H](C)[C@H](O)[C@H](C)C(=O)[C@H](CC)[C@H]4O[C@](CC)([C@H]5CC[C@](O)(CC)[C@H](C)O5)C[C@@H]4C)ccc(C)c3O)CC[C@]3(C)[C@H](CC[C@@H]4[C@@]5(C)CC[C@H](O)C(C)(C)[C@@H]5CC[C@]43C)[C@@H]12 [Compound 6, LAS–Betulinic Acid Conjugate]")
4.82
>>> result_value("CC[C@@H](C(=O)[C@@H](C)[C@@H](O)[C@H](C)CCc1ccc(C)c(O)c1C(=O)OCc1cc(=O)c(O)co1)[C@H]1O[C@](CC)([C@H]2CC[C@](O)(CC)[C@H](C)O2)C[C@@H]1C [Compound 7, LAS–Kojic Acid Conjugate]")
5.20
>>> result_value("COc1cccc2c1C(=O)c1c(O)c3c(c(O)c1C2=O)C[C@@](O)(C(=O)CO)C[C@@H]3O[C@H]1C[C@H](N)[C@H](O)[C@H](C)O1 [DOX, doxorubicin, reference compound]")
6.54

The following molecules each have a reported value; give each one's pIC50.
1. O=c1cc(CO)occ1O [KOJ, kojic acid, reference compound]
2. CC[C@@H](C(=O)[C@@H](C)[C@@H](O)[C@H](C)CCc1ccc(C)c(O)c1C(=O)OC[C@H]1O[C@@H](n2cc(F)c(=O)[nH]c2=O)C[C@@H]1O)[C@H]1O[C@](CC)([C@H]2CC[C@](O)(CC)[C@H](C)O2)C[C@@H]1C [Compound 11, LAS–Floxuridine Conjugate]
3. CC[C@@H](C(=O)[C@@H](C)[C@@H](O)[C@H](C)CCc1ccc(C)c(O)c1C(=O)OCCOCCn1cc(F)c(=O)[nH]c1=O)[C@H]1O[C@](CC)([C@H]2CC[C@](O)(CC)[C@H](C)O2)C[C@@H]1C [Compound 10, LAS–5-Fluorouracil Conjugate]
4. Nc1ccn([C@@H]2O[C@H](CO)[C@@H](O)C2(F)F)c(=O)n1 [GEM, gemcitabine, reference compound]
5. O=c1cc(CCl)occ1O

[out]
[3.65, 4.30, 4.92, 5.82, 4.41]
